Reference source: the PETadex activity labels (doi:10.1093/ismejo/wraf068)

- Substrate: BHET
- protocol_summary: Proxy for plastic degradation [HPLC-UV] (mmol)
- run_conditions: pH 8
Quick reference for Proxy for plastic degradation among some proteins
Respond numerically, and do not add a unit to the figure.

>  <protein>
unnamed (protein) CGKDGGIMTQDVEFTSDDGVLLKGTLYLPAGISEKLPGVTLAHMNMNDRTSWAYYAEKLALEGYVVLAFDLRGWGESGGESDFHEMYRDVMAAVTYLANFGKVDRNRIASAGASMGGMASVIAASRTSSIKAVATVSSPPAWSESEPVKVIGKLPPRPVLVIAGSSDPHLDLRAARMLFLAAKEPRQWLEIKTNKHGTDIFATPQGVELERALAMFFAENLKDSGRSSTTEKDGK

>  <Proxy for plastic degradation>
0

$$$$

Name the recorded Proxy for plastic degradation of the item unnamed (protein) QSYEMGHRSEIYIDPSRGDRAIPTEIYYPSLTAGDDVPVADPPTGGFPVVAFAHGRMMPWDDYENIWGALAPQGFVVACPTTETGFMPNRTNFSLDLIYVISRIRLENSSATSPFYGKIGNASAVIGHSFGGVATFMAAIESDSITAIVTFASGQIDSVELAGISEPALIFAGTDDSLTPAATFQIPYYNNLGSSCKTLVNIIGGTHCHFAESSYYCDIGEAGFPPPGITRERQHELTNQFLIPWLDFMLNTDPVASDSFQTLLTTSGDILYLQDCDIMGVSRDDPTDLPGIIDLLAYPNPFNSAVRIGVERGEWRVENREIFDITGRMVAEIPAQSVIPDPDRESRGVVEGLDSRFHG in your answer. 0
